tested on: MOLT-4; assay: NCI tumour cell line growth inhibition, 48 h
Active and inactive are the calls of the source. Cut-off read from the data, not from the text of the source: active = GI50 up to about 1.1 µM and inactive = higher.
Outcome codes: YES = active, NO = inactive

molecule | study target | classification
NS(=O)(=O)c1ccc(/N=N/c2cnc(O)c(O)c2)cc1 | MOLT-4 | NO
COc1cc2c(cc1OC)C(C)N(C)c1c-2c(OC(C)=O)cc2cc(OC)c(OC)cc12 (stereo not given) | MOLT-4 | NO
C(=N/Nc1ccc(-c2nc3ccccc3[nH]2)cc1)/c1c(-c2ccccc2)[nH]c2ccccc12 | MOLT-4 | YES
CN1C(=O)[C@@]2(C=CC3(CC2)OCCO3)c2ccccc21 | MOLT-4 | NO
C=C1C(=O)C23CC1CCC2C12CO[C@@]3(O)[C@@H](O)C1C(C)(C)C=CC2=O (stereo not given in full) | MOLT-4 | YES
COC(=O)Nc1nc2ccccc2[nH]1 | MOLT-4 | NO
CCN(CC)/[N+]([O-])=N/OCOC(C)=O | MOLT-4 | NO
N/N=C(\c1nc2ccc(Cl)cc2nc1O)C(O)c1ccc(Cl)c(Cl)c1 (stereo not given) | MOLT-4 | NO
COCCOCC(=O)N(CCn1ccc(NC(c2ccccc2)(c2ccccc2)c2ccccc2)nc1=O)CCn1cnc2nc(N)[nH]c(=O)c21 | MOLT-4 | NO
CN(CCO)c1nc(=O)c2c(n1C1OC(CO)C(O)C(O)C1O)CCCC2 (stereo not given) | MOLT-4 | NO
